Tested on: MS2 coat protein
PROTOCOL_TEXT: apparent KD of MS2 coat protein; designed switch direction (-1 OFF switch, 1 ON switch): -1; higher = weaker reporter binding
ASSAY_CONTEXT: Eterna round: R95; input ligand: FMN 200 uM
Assign apparent KD of MS2 coat protein to each entry below.
Answers are plain numbers, in nM.

Some sequences with known apparent KD of MS2 coat protein results, for comparison:
AUAUAACAUGAGGAUCACCCAUGUCAGGAUAUGCAGAACAAGAACAAGACAAGACAGAGCAGAAGGGACAAUAU [Ex 1 M4] (puzzle: Exclusion 1) = 43.8
AGAUGUAGAUACCGAUCCUACAUGAGGAUCACCCAUGUAGCUAGACGUGCUCGCGUGGCUCGUCAGACUACCAGUAG [salish99_TOv1_r3_091] (puzzle: Sensor v3, turn-off variant 1) = 243

**Q:** Give the reported value of apparent KD of MS2 coat protein for this record: CUGGUCCGAGGAUAUAUUAAGUGAUACAUGAGGAUCACCCAUGUUAUUUGAUGGAUGUAAAUAGAAGGCGGACUAG [JL-ex5-3.17] (puzzle: Exclusion 5)
**A:** 37.1

====

System: MS2 coat protein
PROTOCOL_TEXT: apparent KD of MS2 coat protein; designed switch direction (-1 OFF switch, 1 ON switch): 1; higher = weaker reporter binding
ASSAY_CONTEXT: input ligand: FMN 200 uM
Assign apparent KD of MS2 coat protein to each entry below.
Answers are plain numbers, in nM.

Some sequences with known apparent KD of MS2 coat protein results, for comparison:
UGCCUGAGUCGAGGAUAUUAUGGAUCCUCUAAUACAUGAGGAUCACCCAUGUAAUUAAUUAUACAUGAGAAGGCGACUCAGGCU [SSNG2/12-A1] (Eterna round: R96, puzzle: Same State NG 2) = 304
CGACGCACGGCAGGAUAUCGAUUCCAAAGGAAUCGAGAAGGGCCUCAUGUCGUGGAAACGUGACAUGAGGAUCACCCAUGUUGC [Omei SS(NG)1 Cv19] (Eterna round: R96, puzzle: Same State NG 1) = 115
UGUUUGUUGUGAGGAUAUACGUACACCUUACAUGAGGAUCACCCAUGUUGUUUCUUUGAUUGUUGGUAGAAGGCACUUGGUUAU [JR_SSNG2_Sub048] (Eterna round: R96, puzzle: Same State NG 2) = 324
ACAUGAGACCUAGGAUAUUUUGUACCUACAUGUGACAUGAGGAUCACCCAUGUGGUAAGUAUGAGAAAGAAGGAGGAGAUAUGU [Equivalence 21 - Jieux - Same State NG 2] (Eterna round: R96, puzzle: Same State NG 2) = 18.1
UUAUACUCGAGAGGAUAUGCAGAGGAUCACCCUGCAGAAGGCUCGUUAGAGAGGAUAUGCAGAGGAUCACCCUGCAGAAGGCUC [pwkr ssNG DX.24] (Eterna round: R96, puzzle: Same State NG 1) = 45.7
GCUAGAAAUAAAGCCAACAUGAGGAUCACCCAUGUAUGUUGGCAGGAUAUCGUUUGCAAAGCAAACGAGAAGGGCUAAACUAGC [Mat - Same State NG 3 - JL Mod - D5] (Eterna round: R96, puzzle: Same State NG 3) = 141
UCGGGCGUACUUGCUGACAUGAGGAUCACCCAUGUAAAUGGGAAGGAUAUGGUACCGUUUCGGUACCAGAAGGUCCUGGGUGCU [salish99_SSNG3_r04_309] (Eterna round: R96, puzzle: Same State NG 3) = 2270
GUAGCAUACCGAGGAUAUUCAUAUUAAAUACAUGAGGAUCACCCAUGUUAGGCCAAAAGGCCUUGGGAGAAGGCGGAAUGCUAC [Xeonanis - 20 Mod2] (Eterna round: R96, puzzle: Same State NG 2) = 20.9

Quick one: give me apparent KD of MS2 coat protein for each item below, same order please.
1. CUCACAUGGGUAGGAUAUCUAGGAUAUGGGAAAGACUAAGUCUGUAGGUCACCUAACCCAGAUGGAGAGAAGGACCCAACACUC [pwkr ssNG2 2FMN + F9.37] (Eterna round: R96, puzzle: Same State NG 2)
2. AAAAGAAACACAGGAUAUACCGCGCUUAACGCGGUAGAAGGGUGGGACAUGAGGAUCACCCAUGUGGCCUGAGCGCCAGGCCGC [Uszadi] (Eterna round: R96, puzzle: Same State NG 1)
3. AAACGACACACAGGAUAUCCGCCAUGCAGGCUCGGAGAAGGGUGUGAAACAUGAGGAUCACCCAUGUAGUCAAAAUAAUAAAGA [Arardixequ] (Eterna round: R96, puzzle: Same State NG 1)

**A:**
1. 32.4
2. 428
3. 47
